Endpoint: IC50. System: mitochondrial RNA-polymerase (POLRMT) (Mus musculus, UniProt Q8BKF1). Items follow.
Sequence (Q8BKF1 42-1207): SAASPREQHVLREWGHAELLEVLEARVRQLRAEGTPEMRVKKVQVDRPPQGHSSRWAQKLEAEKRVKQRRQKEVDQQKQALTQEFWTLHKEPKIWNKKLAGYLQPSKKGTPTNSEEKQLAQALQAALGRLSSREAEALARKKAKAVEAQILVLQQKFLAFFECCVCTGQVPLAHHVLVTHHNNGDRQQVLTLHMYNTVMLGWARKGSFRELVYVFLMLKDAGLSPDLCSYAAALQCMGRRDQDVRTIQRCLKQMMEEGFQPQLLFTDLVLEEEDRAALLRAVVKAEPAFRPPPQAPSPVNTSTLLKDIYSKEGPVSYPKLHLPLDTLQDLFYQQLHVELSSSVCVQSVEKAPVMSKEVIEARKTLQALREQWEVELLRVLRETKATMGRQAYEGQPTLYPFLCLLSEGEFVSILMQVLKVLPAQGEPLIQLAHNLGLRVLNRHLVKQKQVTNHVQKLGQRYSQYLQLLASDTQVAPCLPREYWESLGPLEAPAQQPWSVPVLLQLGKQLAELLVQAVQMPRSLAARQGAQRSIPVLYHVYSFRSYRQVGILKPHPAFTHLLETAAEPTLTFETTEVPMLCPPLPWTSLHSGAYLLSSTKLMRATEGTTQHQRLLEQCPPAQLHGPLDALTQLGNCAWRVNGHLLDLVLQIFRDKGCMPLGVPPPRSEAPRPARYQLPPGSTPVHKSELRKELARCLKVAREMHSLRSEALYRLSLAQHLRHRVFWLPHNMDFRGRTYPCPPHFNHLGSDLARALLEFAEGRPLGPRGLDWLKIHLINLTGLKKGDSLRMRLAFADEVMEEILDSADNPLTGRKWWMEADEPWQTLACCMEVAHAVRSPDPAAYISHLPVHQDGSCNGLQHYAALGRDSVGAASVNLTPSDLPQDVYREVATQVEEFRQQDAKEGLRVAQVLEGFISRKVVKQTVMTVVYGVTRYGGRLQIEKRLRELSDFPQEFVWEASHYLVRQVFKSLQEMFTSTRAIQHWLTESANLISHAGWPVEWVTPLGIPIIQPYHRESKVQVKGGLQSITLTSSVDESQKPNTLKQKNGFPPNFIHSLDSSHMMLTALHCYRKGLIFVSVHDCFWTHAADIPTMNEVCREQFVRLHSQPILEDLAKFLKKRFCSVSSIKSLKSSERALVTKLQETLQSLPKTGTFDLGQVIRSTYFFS
REPORTED_PROPERTY: IC50

Cc1ccccc1-c1cc(=O)oc2cc(OC(C)C(=O)N3CCCC(S(=O)(=O)O)C3)ccc12 (stereo not drawn) ... < 20 nM
C[C@@H](Oc1ccc2c(-c3ccc(F)cc3Cl)cc(=O)oc2c1)C(=O)N1CC[C@H](CC(=O)O)C1 ... 20 to 100 nM
C[C@@H](Oc1ccc2c(-c3ccccc3Cl)cc(=O)oc2c1)C(=O)N1CC[C@H](C(=O)O)C1 ... < 20 nM
Cc1cc(F)ccc1-c1cc(=O)oc2cc(O[C@H](C)C(=O)N3CCC[C@H](C(=O)O)C3)ccc12 ... < 20 nM
CCOC(=O)C1(C)CCCN(C(=O)C(C)Oc2ccc3c(-c4ccccc4Cl)cc(=O)oc3c2)C1 (stereo not drawn) ... 20 to 100 nM
CC(Oc1ccc2c(-c3ccccc3Cl)cc(=O)oc2c1)C(=O)N1CCC[C@H](C(=O)N(C)C)C1 (stereo partly drawn) ... 20 to 100 nM
Cc1cscc1-c1cc(=O)oc2cc(O[C@H](C)C(=O)N3CCCCC3)ccc12 ... < 20 nM
CNC(=O)C1CCCN(C(=O)C(C)Oc2ccc3c(-c4ccccc4Cl)cc(=O)oc3c2)C1 (stereo not drawn) ... < 20 nM
Cc1ccccc1-c1cc(=O)oc2cc(OC(C)C(=O)N3CCCC(S(N)(=O)=O)C3)ccc12 (stereo not drawn) ... < 20 nM
C[C@@H](Oc1ccc2c(-c3ccc(F)cc3Cl)cc(=O)oc2c1)C(=O)N1CCC[C@H](CC(=O)OC(C)(C)C)C1 ... 20 to 100 nM
COC(=O)C1CCN(C(=O)[C@@H](C)Oc2ccc3c(-c4ccc(F)cc4Cl)cc(=O)oc3c2)CC1 ... < 20 nM
CNC(=O)[C@H]1CCCN(C(=O)[C@@H](C)Oc2ccc3c(-c4ccc(F)cc4Cl)cc(=O)oc3c2)C1 ... 20 to 100 nM
CCC(=O)N[C@H]1CCCN(C(=O)[C@@H](C)Oc2ccc3c(-c4ccc(F)cc4Cl)cc(=O)oc3c2)C1 ... < 20 nM
CCNC(=O)C(C)Oc1ccc2c(-c3ccccc3C)cc(=O)oc2c1 (stereo not drawn) ... 20 to 100 nM
COC(=O)CC1CCN(C(=O)C(C)Oc2ccc3c(-c4ccccc4C)cc(=O)oc3c2)CC1 (stereo not drawn) ... 20 to 100 nM
